molecular target: TRPML1 (Homo sapiens); assay: Fluorescent TRPML1 assay (Fluo4-AM calcium fluorescence in doxycycline-induced HEK-293 Trex cells); assay type: cell-based
Sequence (Q9GZU1 whole entry L15A/L16A/L577A/L578A, form open): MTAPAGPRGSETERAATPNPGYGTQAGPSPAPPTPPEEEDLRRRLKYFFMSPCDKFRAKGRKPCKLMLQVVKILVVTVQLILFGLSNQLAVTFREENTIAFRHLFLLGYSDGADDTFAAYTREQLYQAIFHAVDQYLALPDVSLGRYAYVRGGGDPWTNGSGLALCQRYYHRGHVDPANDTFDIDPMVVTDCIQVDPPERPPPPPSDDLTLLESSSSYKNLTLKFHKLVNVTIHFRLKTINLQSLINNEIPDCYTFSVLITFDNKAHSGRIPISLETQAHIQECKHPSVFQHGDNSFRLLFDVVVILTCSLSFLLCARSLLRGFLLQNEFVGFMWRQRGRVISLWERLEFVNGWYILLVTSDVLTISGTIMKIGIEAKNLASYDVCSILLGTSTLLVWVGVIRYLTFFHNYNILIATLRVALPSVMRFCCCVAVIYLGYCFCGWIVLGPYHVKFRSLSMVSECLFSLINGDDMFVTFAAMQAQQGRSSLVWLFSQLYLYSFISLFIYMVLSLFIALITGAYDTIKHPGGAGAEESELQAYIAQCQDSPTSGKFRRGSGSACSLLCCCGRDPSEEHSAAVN
experimental_readout: EC50

Briefly, EC50 measured for C[C@@H]1CN(c2ncnc3c2c(C(F)F)cn3C2CCCC(C#N)C2)[C@@H](C)CN1C(=O)OC(C)(C)C (some centres unmarked) : 500 to 2000 nM

Briefly, EC50 measured for `C#Cc1ccnc(-n2cc(C3CC3)c3c(N4C[C@@H](C)N(C(=O)OC(C)(C)C)C[C@@H]4C)ncnc32)c1` : < 100 nM

Briefly, EC50 measured for `C[C@@H]1CN(c2ncnc3c2c(C(C)(C)C)cn3-c2nccc(C#N)n2)[C@@H](C)CN1C(=O)OC(C)(C)C` : < 100 nM

Briefly, EC50 measured for `C[C@@H]1CN(c2ncnc3c2c(C(C)(C)C)cn3-c2cc(C#N)ncn2)[C@@H](C)CN1C(=O)OC(C)(C)C` : < 100 nM

Briefly, EC50 measured for `CC(C)(C)OC(=O)N1CCN(c2ncnc3c2c(N2CCCC2)cn3-c2cc(C#N)ccn2)C(C)(C)C1` : < 100 nM

Briefly, EC50 measured for `C[C@@H]1CN(c2ncnc3c2c(C(F)(F)F)cn3-c2cc(F)ccn2)[C@@H](C)CN1C(=O)OC1(C)CC1` : < 100 nM

Briefly, EC50 measured for `C[C@@H]1CN(c2ncnc3c2c(OC(F)F)cn3-c2cc(C#N)ccn2)[C@@H](C)CN1C(=O)OC(C)(C)C` : < 100 nM

Briefly, EC50 measured for `C[C@@H]1CN(c2ncnc3c2c(C(F)F)cn3-c2cc(C#N)ccn2)[C@@H](C)CN1C(=O)OC1(C)CCC1` : < 100 nM

Briefly, EC50 measured for `C[C@@H]1CN(c2ncnc3c2c(C(F)(F)F)cn3C2CCOCC2)[C@@H](C)CN1C(=O)OC(C)(C)C` : 500 to 2000 nM

Briefly, EC50 measured for `C[C@@H]1CN(c2nccc3c2c(C(F)F)cn3-c2cc(C#N)ccn2)[C@@H](C)CN1C(=O)OC(C)(C)C` : 100 to 500 nM

Briefly, EC50 measured for `[2H]C([2H])([2H])[C@@H]1CN(c2ncnc3c2c(C(F)F)cn3-c2cc(C#N)ccn2)[C@@H](C)CN1C(=O)OC(C)(C)C` : < 100 nM

Briefly, EC50 measured for `CC(C)(C)OC(=O)N1CCN(c2ncnc3c2c(C(F)(F)F)cn3-c2cc(C#N)ccn2)C2(CC2)C1` : < 100 nM

Briefly, EC50 measured for `C[C@@H]1CN(c2ncnc3c2c(C(F)(F)F)cn3-c2cc(F)ccn2)[C@@H](C)CN1C(=O)OC(C)(C)C` : < 100 nM

Briefly, EC50 measured for `Cc1cn(-c2cc(C#N)ccn2)c2ncnc(N3CCN(C(=O)OC(C)(C)C)[C@H](C)C3)c12` : < 100 nM
